Where do the numbers come from? From patent US20260184782A1.

koff values by entry
Target: T1, recombinant human TIGIT (human, UniProt Q495A1 22-141, limits assumed)
T1 construct: recombinant human TIGIT used in Carterra SPR; also called hTIGIT
T1 sequence (looked up): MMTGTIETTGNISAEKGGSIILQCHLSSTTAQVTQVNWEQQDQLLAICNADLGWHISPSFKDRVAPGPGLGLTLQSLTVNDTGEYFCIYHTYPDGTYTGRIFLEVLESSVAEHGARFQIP
Assay: SPR Carterra, average
Field format: number, assumed s⁻¹, no unit text.

Observe how each entry below is paired with its result.
>>> measuredresult("TIGIT-SC130 (Fc fusion, VHH-Fc fusion in assay) VHH: EVQLVESGGGLVQPGGSLRLSCAASGPTLGSYVTGWFRQAPGKEREFVAAISGSSDDTYYADSVKGRFTISADNSKNTAYLQMNSLKPEDTAVYYCARWREFPGYYFAIDVWGQGTLVTVSS")
0.00526
>>> measuredresult("TIGIT-SC175 (Fc fusion, VHH-Fc fusion in assay) VHH: EVQLVESGGGLVQPGGSLRLSCAASGNTFSGGFMGWFRQAPGKEREWVASVLRGGYTWYADSVKGRFTISADNSKNTAYLQMNSLKPEDTAVYYCTTDALRFLEWPWWGQGTLVTVSS")
0.00124
>>> measuredresult("TIGIT-SC191 (Fc fusion, VHH-Fc fusion in assay) VHH: EVQLVESGGGLVQPGGSLRLSCAASGFVFSSDWMGWFRQAPGKEREWVASVLRGGYTWYADSVKGRFTISADNSKNTAYLQMNSLKPEDTAVYYCARGDSMDVWGQGTLVTVSS")
0.125
>>> measuredresult("TIGIT-SC6 (Fc fusion, VHH-Fc fusion in assay) VHH: EVQLVESGGGLVQPGGSLRLSCAASGNTFSGGFMGWFRQAPGKEREWVASVLRGGYTWYADSVKGRFTISADNSKNTAYLQMNSLKPEDTAVYYCAISPVAWHAKFDSWGQGTLVTVSS")
0.00129
>>> measuredresult("TIGIT-SC181 (Fc fusion, VHH-Fc fusion in assay) VHH: EVQLVESGGGLVQPGGSLRLSCAASGFTLSSNWMGWFRQAPGKEREFVASVLRGGYTWYADSVKGRFTISADNSKNTAYLQMNSLKPEDTAVYYCARDAYYYGLWGQGTLVTVSS")
0.168

So, TIGIT-SC189 (Fc fusion, VHH-Fc fusion in assay) VHH: EVQLVESGGGLVQPGGSLRLSCAASGNTFSGGFMGWFRQAPGKEREWVASVLRGGYTWYADSVKGRFTISADNSKNTAYLQMNSLKPEDTAVYYCVTDVGAPDYWGQGTLVTVSS ? Its koff was 0.00528

So, TIGIT-SC137 (Fc fusion, VHH-Fc fusion in assay) VHH: EVQLVESGGGLVQPGGSLRLSCAASGFTLENNMMGWFRQAPGKEREFVAAISRSGTLKAYADSVKGRFTISADNSKNTAYLQMNSLKPEDTAVYYCSLVSGPRWYWGQGTLVTVSS ? Its koff was 0.00688
